Attribution: ChEMBL document CHEMBL5029186

# experiment: Drug metabolism in human gut microbes assessed as metabolite formation by LC-MS/MS analysis
# Assay type: ADME
metric: Drug metabolism

# compound, value
records = [
    ("O=S(=O)([O-])CCS.[Na+]", "Metabolite_Detected"),
    ("N[C@@H](Cc1ccc(O)c(O)c1)C(=O)O", "Metabolite_Detected"),
    ("COC1=C(OC)C(=O)C(CCCCCCCCCCO)=C(C)C1=O", "Metabolite_Detected"),
    ("O=C([O-])[C@H]1/C(=C/CO)O[C@@H]2CC(=O)N21.[K+] [CLAVULANATE POTASSIUM]", "Metabolite_Notdetected"),
    ("Cl.Oc1noc2c1CCNC2", "Metabolite_Notdetected"),
]

Look up Drug metabolism for the entries below, preserving their order.
1. CCCCNc1ccc(C(=O)OCCOCCOCCOCCOCCOCCOCCOCCOCCOC)cc1 [BENZONATATE]
2. CCCc1nc(C(C)(C)O)c(C(=O)OCc2oc(=O)oc2C)n1Cc1ccc(-c2ccccc2-c2nnn[nH]2)cc1
3. CCN(CC)C(=O)/C(C#N)=C/c1cc(O)c(O)c([N+](=O)[O-])c1
4. NS(=O)(=O)c1cc2c(cc1Cl)NCNS2(=O)=O [HYDROCHLOROTHIAZIDE]

Response:
1: Metabolite_Notdetected; 2: Metabolite_Detected; 3: Metabolite_Detected; 4: Metabolite_Notdetected

Query: Tell us which Drug metabolism value is on record for C1N2CN3CN1CN(C2)C3
Response: Metabolite_Detected

* * *

Please respond with reported half-life for every item in the list.
# experiment: Stability in human gut microbes assessed as half life by LC-MS analysis
# Assay type: ADME
Give bare numbers, in h.

# compound string, unit abbreviation, half-life
measured = [
    ("C1N2CN3CN1CN(C2)C3", "h", 10),
]

Now for the compound whose half-life we want.
Query: Identify the reported half-life for the following entry. N[C@@H](Cc1ccc(O)c(O)c1)C(=O)O
Response: 30

* * *

So I've got a bunch of compounds here, and I need their half-life values.
# experiment: Stability of compound in mini gut model assessed as half life by LC-MS analysis
# Type: ADME, tissue-based
One number for each entry, in h.

# compound string, half-life, h
records = [
    ("C1N2CN3CN1CN(C2)C3", 10),
]

Query: Consider the compound N[C@@H](Cc1ccc(O)c(O)c1)C(=O)O . State its measured half-life.
Response: 30
